System: OVCAR 3 cells
run-description: Cancer cell line proliferation assay, ATP-based cell viability (Cell Titre Glow), OVCAR 3 (CCNE1-amplified)
settings: KYSE30 (normal CCNE1) GI50 vs. OVCAR 3 (CCNE1-amplified) GI50
Experimental: Cancer cell lines with either normal (KYSE-30) or amplified CCNE1 expression (OVCAR 3 —ovarian cancer) were evaluated for their sensitivity to PKMYT1 inhibitors using Cell Titre Glow assay (Promega G7573) as endpoint to assess cell proliferation. The luminescence signal was read on a PHERAStar FS microplate reader (BMG Labtech). […]
measured-endpoint: Selectivity ratio KYSE30 Gl50 vs. OVCAR3 Gl50

### Prompt Answer with the recorded Selectivity ratio KYSE30 Gl50 vs. OVCAR3 Gl50 of `Cc1ccc(O)c(C)c1NC(=O)c1cnc(Nc2cc(C(F)(F)F)nc(NCCC(C)(C)C)n2)s1` only.
### Response Y (>20 fold)

### Prompt Answer with the recorded Selectivity ratio KYSE30 Gl50 vs. OVCAR3 Gl50 of `CCN(C(=O)Cc1cccc(Nc2ncc(C(=O)Nc3c(C)ccc(O)c3C)s2)n1)C1CC1` only.
### Response Y (>20 fold)

### Prompt Answer with the recorded Selectivity ratio KYSE30 Gl50 vs. OVCAR3 Gl50 of `Cc1cn(-c2ncc(C(=O)Nc3c(C)ccc(O)c3C)s2)nc1Nc1ncc(C(=O)Nc2c(C)ccc(O)c2C)s1` only.
### Response X (3-20 fold)

### Prompt Answer with the recorded Selectivity ratio KYSE30 Gl50 vs. OVCAR3 Gl50 of `Cc1ccc(NC(=O)OC(C)(C)C)nc1Nc1ncc(C(=O)Nc2c(C)ccc(O)c2C)s1` only.
### Response X (3-20 fold)

----------
tested-on: Human PKMYT1 (Homo sapiens, UniProt Q99640)
Construct: Human PKMYT1 75-362 was cloned as a TEV cleavable 6xHis fusion; 6xHis (TEV cleavable) (cleaved yes); made in house; host or cells: bacterial cells
run-description: PKMYT1 biochemical ADP-Glo enzymatic assay
settings: ADP-Glo; 15 nM PKMYT1 kinase domain, 500 µM ATP, 60 minutes at 26° C.; banded
Collected IC50 values appear next to each entry.

Sample answers from the record:
### Prompt Answer with the recorded IC50 of `Cc1ccc(O)c(C)c1NC(=O)c1cnc(Nc2ccn([C@@H]3CCN(C(=O)CC(C)(C)C)C3)n2)s1` only.
### Response 50 to 1000 nM

### Prompt Answer with the recorded IC50 of `Cc1ccc(O)c(C)c1NC(=O)c1cnc(Nc2ccnn2CCN)s1` only.
### Response 50 to 1000 nM

---
### Prompt Answer with the recorded IC50 of `Cc1ccc(O)c(C)c1NC(=O)c1cnc(Nc2cn[nH]c2)s1` only.
### Response 1000 to 11000 nM

### Prompt Answer with the recorded IC50 of `Cc1csc(Nc2ncc(C(=O)Nc3c(C)ccc(O)c3C)s2)n1` only.
### Response < 50 nM

### Prompt Answer with the recorded IC50 of `Cc1ccc(O)c(C)c1NC(=O)c1cnc(Nc2ccn(CC(=O)N3C[C@@H](C)N(C(=O)OC(C)(C)C)[C@@H](C)C3)n2)s1` only.
### Response < 50 nM

----------
Collected IC50 values appear next to each entry.
tested-on: Human PKMYT1 (Homo sapiens, UniProt Q99640)
Construct: Human PKMYT1 75-362 was cloned as a TEV cleavable 6xHis fusion; 6xHis (TEV cleavable) (cleaved yes); made in house; host or cells: bacterial cells
Sequence (Q99640 75-362): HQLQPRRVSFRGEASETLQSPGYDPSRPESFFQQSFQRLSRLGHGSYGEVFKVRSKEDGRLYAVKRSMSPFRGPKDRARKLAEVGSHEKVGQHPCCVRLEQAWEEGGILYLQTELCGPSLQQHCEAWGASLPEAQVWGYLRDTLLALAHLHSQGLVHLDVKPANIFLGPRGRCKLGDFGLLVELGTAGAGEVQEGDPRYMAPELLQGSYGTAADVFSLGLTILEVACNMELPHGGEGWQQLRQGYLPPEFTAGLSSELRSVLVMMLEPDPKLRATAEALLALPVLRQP
run-description: PKMYT1 biochemical ADP-Glo enzymatic assay
settings: ADP-Glo; 15 nM PKMYT1 kinase domain, 500 µM ATP, 60 minutes at 26° C.; banded

### Prompt Answer with the recorded IC50 of `Cc1ccc(O)c(C)c1NC(=O)c1cnc(Nc2ccn([C@@H]3CCN(C(=O)CC(C)C)C3)n2)s1` only.
### Response 50 to 1000 nM

### Prompt Answer with the recorded IC50 of `Cc1ccc(O)c(C)c1NC(=O)c1cnc(NCC2CCN(C(=O)OC(C)(C)C)CC2)s1` only.
### Response 50 to 1000 nM

### Prompt Answer with the recorded IC50 of `Cc1ccc(O)c(C)c1NC(=O)c1cnc(NCC2CCN(CC(=O)N(C)C)CC2)s1` only.
### Response 1000 to 11000 nM

Let us move to another entry and its IC50.
### Prompt Answer with the recorded IC50 of `Cc1ccc(C(=O)Nc2ccc(Nc3ncc(C(=O)Nc4c(C)ccc(O)c4C)s3)nc2)c(C)c1` only.
### Response 50 to 1000 nM

----------
tested-on: WEE1 (Homo sapiens)
Construct: purchased Thermo Fisher PR7373A
Sequence (P30291 whole entry): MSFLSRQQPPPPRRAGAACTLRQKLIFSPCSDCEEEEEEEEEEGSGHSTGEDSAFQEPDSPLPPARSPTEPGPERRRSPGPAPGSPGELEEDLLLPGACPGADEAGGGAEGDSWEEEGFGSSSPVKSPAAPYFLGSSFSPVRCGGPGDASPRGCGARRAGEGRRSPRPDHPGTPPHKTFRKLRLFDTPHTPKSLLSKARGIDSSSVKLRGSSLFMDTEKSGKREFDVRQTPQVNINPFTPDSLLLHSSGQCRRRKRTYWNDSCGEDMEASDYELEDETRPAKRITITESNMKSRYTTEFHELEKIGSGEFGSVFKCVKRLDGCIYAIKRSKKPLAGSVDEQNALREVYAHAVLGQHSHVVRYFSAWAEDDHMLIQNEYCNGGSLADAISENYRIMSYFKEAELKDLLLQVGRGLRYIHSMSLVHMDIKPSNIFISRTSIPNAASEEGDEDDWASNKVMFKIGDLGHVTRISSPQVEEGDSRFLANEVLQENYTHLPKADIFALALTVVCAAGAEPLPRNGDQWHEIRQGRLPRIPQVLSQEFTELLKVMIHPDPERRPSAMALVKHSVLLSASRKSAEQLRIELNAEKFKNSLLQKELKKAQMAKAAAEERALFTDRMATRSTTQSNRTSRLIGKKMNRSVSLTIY
run-description: Selectivity versus WEE1 assay (ADP-Glo enzymatic assay)
Format: biochemical
settings: ADP-Glo; 15 nM WEE1, 60 minutes at 26° C.; banded
pIC50: −log10 of the molar value. Structures can show the parent of a compound that is named as a salt.
Collected pIC50 values appear next to each entry.

Sample answers from the record:
### Prompt Answer with the recorded pIC50 of `Cc1ccc(O)c(C)c1NC(=O)c1cnc(Nc2ccc(NC(=O)c3c(F)cc(F)cc3F)cn2)s1` only.
### Response < 4.96

### Prompt Answer with the recorded pIC50 of `Cc1ccc(O)c(C)c1NC(=O)c1cnc(NCC2CCN(C(=O)CC(C)(C)C)CC2)s1` only.
### Response < 4.96

### Prompt Answer with the recorded pIC50 of `Cc1ccc(O)c(C)c1NC(=O)c1cnc(Nc2ccn(CC(=O)N3CCNC(C)(C)C3)n2)s1` only.
### Response < 4.96

### Prompt Answer with the recorded pIC50 of `Cc1ccc(O)c(C)c1NC(=O)c1cnc(NCc2ccccn2)s1` only.
### Response < 4.96

### Prompt Answer with the recorded pIC50 of `Cc1ccc(O)c(C)c1NC(=O)c1cnc(Nc2ccc(F)c(C#N)c2)s1` only.
### Response < 4.96

---
### Prompt Answer with the recorded pIC50 of `Cc1ccc(O)c(C)c1NC(=O)c1cnc(Nc2ccn([C@@H]3CCN(C(=O)COc4ccccc4)C3)n2)s1` only.
### Response < 4.96

### Prompt Answer with the recorded pIC50 of `Cc1ccc(O)c(C)c1NC(=O)c1cnc(Nc2cc(C)n(CCC(=O)O)n2)s1` only.
### Response < 4.96

### Prompt Answer with the recorded pIC50 of `Cc1ccc(O)c(C)c1NC(=O)c1cnc(Nc2ccn(CC(=O)NCCCO)n2)s1` only.
### Response < 4.96

### Prompt Answer with the recorded pIC50 of `Cc1ccc(O)c(C)c1NC(=O)c1cnc(Nc2ccn(CC(=O)N3CCC(F)(F)CC3)n2)s1` only.
### Response < 4.96

### Prompt Answer with the recorded pIC50 of Cc1ccc(O)c(C)c1NC(=O)c1cnc(Nc2ccn(CC(=O)NCCN3CCCCC3)n2)s1 [BAA-168, (hydrochloride)] only.
### Response < 4.96

### Prompt Answer with the recorded pIC50 of `Cc1ccc(O)c(C)c1NC(=O)c1cnc(Nc2cccc(NC(=O)C(C)(C)C)n2)s1` only.
### Response < 4.96

### Prompt Answer with the recorded pIC50 of `Cc1ccc(O)c(C)c1NC(=O)c1cnc(Nc2c3ccncc3nn2C)s1` only.
### Response 4.96 to 6.00

### Prompt Answer with the recorded pIC50 of Cc1ccc(O)c(C)c1NC(=O)c1cnc(Nc2cc(Cl)cc(NC(=O)C(C)(C)C)n2)s1.Cl [BAA-334, hydrochloride] only.
### Response < 4.96

### Prompt Answer with the recorded pIC50 of `Cc1cn(-c2ccc(C(F)(F)F)nc2)nc1Nc1ncc(C(=O)Nc2c(C)ccc(O)c2C)s1` only.
### Response < 4.96

### Prompt Answer with the recorded pIC50 of `Cc1ccc(O)c(C)c1NC(=O)c1cnc(Nc2cc(C(F)(F)F)nn2C)s1` only.
### Response < 4.96

----------
tested-on: Human PKMYT1 (Homo sapiens, UniProt Q99640)
Construct: Human PKMYT1 75-362 was cloned as a TEV cleavable 6xHis fusion; 6xHis (TEV cleavable) (cleaved yes); made in house; host or cells: bacterial cells
run-description: PKMYT1 biochemical ADP-Glo enzymatic assay
settings: ADP-Glo; 15 nM PKMYT1 kinase domain, 500 µM ATP, 60 minutes at 26° C.; banded
measured-endpoint: IC50

Sample answers from the record:
### Prompt Answer with the recorded IC50 of Cc1ccc(O)c(C)c1NC(=O)c1cnc(Nc2cc(C(F)(F)F)cc(Cl)n2)s1 [BAA-321] only.
### Response 50 to 1000 nM

### Prompt Answer with the recorded IC50 of Cc1ccc(O)c(C)c1NC(=O)c1cnc(Nc2ccc3cc(Br)ccc3n2)s1 [BAA-300] only.
### Response 50 to 1000 nM

### Prompt Answer with the recorded IC50 of Cc1cn(-c2cncn2C)nc1Nc1ncc(C(=O)Nc2c(C)ccc(O)c2C)s1 [BAA-387] only.
### Response < 50 nM

### Prompt Answer with the recorded IC50 of Cc1ccc(NC(=O)C(C)C)nc1Nc1ncc(C(=O)Nc2c(C)ccc(O)c2C)s1.Cl [BAA-332, hydrochloride] only.
### Response < 50 nM

### Prompt Answer with the recorded IC50 of Cc1ccc(NC(=O)c2ccc(F)cc2)nc1Nc1ncc(C(=O)Nc2c(C)ccc(O)c2C)s1 [BAA-309] only.
### Response 50 to 1000 nM

---
### Prompt Answer with the recorded IC50 of Cc1cn(-c2ccc(C(F)(F)F)nc2)nc1Nc1ncc(C(=O)Nc2c(C)ccc(O)c2C)s1 [BAA-367] only.
### Response 50 to 1000 nM
